Ref: patent US6872749B2

Assay: Bioavailability of esters of methionine after spot dose to cows (Example 2)
Type: in vivo, cow
Conditions: bovine, in vivo, po
Description: The bioavailability of the esters was evaluated. The samples were stored in a freezer. The procedure of (b1) was repeated using 72 g of methionine ethyl ester hydrochloride, prepared as detailed above • cyclohexyl methioninate: 122 g • methionine methyl ester hydrochloride: 73 g • sec butyl methioninate: 72 g
Exercise: for every item that follows, state its recorded Bioavailability %.
Numbers only, in %.

Below: 10 compounds and their reported Bioavailability %.
compound	recorded-number
CCCCCCCCCCCCOC(=O)[C@@H](N)CCSC [Dodecyl methioninate, dodecyl methioninate]	3
CCCCOC(=O)[C@@H](N)CCSC [n-butyl methioninate]	8
CCCCCCCCCCCCCCCCCCOC(=O)[C@@H](N)CCSC [n-octadecyl methioninate]	1
COC(=O)[C@@H](N)CCSC.Cl [Methionine methyl ester hydrochloride, methionine methyl ester hydrochloride]	25
CCCOC(=O)[C@@H](N)CCSC [n-propyl methioninate]	22
CCCCCCOC(=O)[C@@H](N)CCSC [n-hexyl methioninate]	17
COC(=O)[C@@H](N)CCSC [Methyl methioninate, methyl methioninate]	51
CSCC[C@H](N)C(=O)OC(C)(C)C [Tertiary butyl methioninate, tertiary butyl methioninate]	80
CSCC[C@H](N)C(=O)OC1CCCCC1 [Cyclohexyl methioninate, cyclohexyl methioninate]	35
CCC(C)OC(=O)[C@@H](N)CCSC (stereo partly drawn) [sec butyl methioninate]	28

Hey, quick one: what's Bioavailability % for each of these?
1. CSCC[C@H](N)C(=O)OC(C)C [Isopropyl methioninate, isopropyl methioninate]
2. CCOC(=O)[C@@H](N)CCSC.Cl [Methionine ethyl ester hydrochloride, methionine ethyl ester hydrochloride]

Output:
1: 44; 2: 30
